assay: Oral bioavailability in rat; format: ADME, organism-based; settings: in vivo
property: bioavailability (%)
// note: answer is a bare numeric in %

Form field: reported bioavailability of `CC(C)c1nc(-c2cccc(NS(=O)(=O)c3c(F)cccc3F)c2F)c(-c2ccnc(Nc3ccc(N4CCOCC4)nc3)n2)s1` 85

* * *

target: Serine/threonine-protein kinase B-raf (Homo sapiens, UniProt P15056, V600E); assay: Inhibition of B-Raf V600E mutant in human SK-MEL-28 cells assessed as decrease in ERK phosphorylation incubated for 1 hr by immunoassay; type: cell-based
Sequence (P15056 2-766 V600E limits assumed): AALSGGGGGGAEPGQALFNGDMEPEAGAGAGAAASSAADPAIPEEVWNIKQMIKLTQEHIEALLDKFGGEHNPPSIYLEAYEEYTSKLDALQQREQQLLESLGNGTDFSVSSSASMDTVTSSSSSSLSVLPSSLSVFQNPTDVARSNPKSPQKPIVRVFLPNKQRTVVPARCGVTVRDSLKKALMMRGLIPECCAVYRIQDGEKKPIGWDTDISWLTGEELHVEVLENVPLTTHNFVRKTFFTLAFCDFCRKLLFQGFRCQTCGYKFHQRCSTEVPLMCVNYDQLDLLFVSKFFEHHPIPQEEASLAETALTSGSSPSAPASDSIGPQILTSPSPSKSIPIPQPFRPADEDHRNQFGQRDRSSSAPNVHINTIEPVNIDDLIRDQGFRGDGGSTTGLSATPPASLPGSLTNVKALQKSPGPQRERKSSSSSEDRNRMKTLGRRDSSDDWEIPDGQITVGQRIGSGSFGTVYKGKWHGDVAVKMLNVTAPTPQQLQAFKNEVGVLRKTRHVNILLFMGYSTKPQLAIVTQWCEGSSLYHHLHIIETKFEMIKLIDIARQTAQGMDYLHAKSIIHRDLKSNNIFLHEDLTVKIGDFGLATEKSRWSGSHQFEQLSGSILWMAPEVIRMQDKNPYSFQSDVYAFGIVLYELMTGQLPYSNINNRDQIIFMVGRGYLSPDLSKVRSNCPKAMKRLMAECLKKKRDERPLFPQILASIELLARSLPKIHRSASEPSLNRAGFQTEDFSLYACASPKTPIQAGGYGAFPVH
property: pIC50
# pIC50 = -log10(concentration in molar units)

chemicalString	targetOfAssay	pIC50
CC(C)(C)c1nc(-c2ccc(F)c(NS(=O)(=O)c3c(F)cccc3F)c2)c(-c2ccnc(NCCS(C)(=O)=O)n2)s1	Serine/threonine-protein kinase B-raf (Homo sapiens, UniProt P15056, V600E)	7.96
CC(C)c1nc(-c2cccc(NS(=O)(=O)c3cccc(F)c3)c2)c(-c2ccnc(NC3CC3)n2)s1	Serine/threonine-protein kinase B-raf (Homo sapiens, UniProt P15056, V600E)	7.55
CC(C)c1nc(-c2cccc(NS(=O)(=O)c3c(F)cccc3F)c2F)c(-c2ccnc(NCCS(C)(=O)=O)n2)s1	Serine/threonine-protein kinase B-raf (Homo sapiens, UniProt P15056, V600E)	8.15
CC(C)c1nc(-c2ccc(F)c(NS(=O)(=O)c3cccc(F)c3)c2)c(-c2ccnc(N)n2)s1	Serine/threonine-protein kinase B-raf (Homo sapiens, UniProt P15056, V600E)	5.59

Okay, next one:
What value of measured pIC50 is listed for `CC(C)c1nc(-c2cccc(NS(=O)(=O)c3c(F)cccc3F)c2)c(-c2ccnc(NCCS(C)(=O)=O)n2)s1` ? 8.40

* * *

assay: Blood clearance in iv dosed monkey; type: ADME, organism-based, Macaca mulatta; details: rhesus monkey
property: clearance (mL/min/kg)
Entry rule: numbers only, all in mL/min/kg.

Name the reported clearance value associated with the compound `CC(C)c1nc(-c2cccc(NS(=O)(=O)c3c(F)cccc3F)c2F)c(-c2ccnc(Nc3ccc(N4CCOCC4)nc3)n2)s1` 39

* * *

assay: Oral bioavailability in monkey; format: ADME, organism-based, Macaca mulatta; conditions: rhesus monkey, in vivo
property: bioavailability (%)
Your answer is read as %, so omit the unit and give the number.

What value of measured bioavailability is listed for `CC(C)c1nc(-c2cccc(NS(=O)(=O)c3c(F)cccc3F)c2F)c(-c2ccnc(Nc3ccc(N4CCOCC4)nc3)n2)s1` ? 5

* * *

test system: Rattus norvegicus; experiment: Dose-normalized AUC in po dosed rat; type: ADME, organism-based; conditions: in vivo
property: log10 AUC/dose (log10 of the value in ng·h/mL/mg/kg)
Answers are given as log10 of AUC/dose in ng·h/mL/mg/kg.

Reference set, count: 9
chemicalString	targetOfAssay	log10 AUC/dose
CC(C)c1nc(-c2cccc(NS(=O)(=O)c3c(F)cccc3F)c2F)c(-c2ccnc(NCCS(C)(=O)=O)n2)s1	Rattus norvegicus	2.10
CC(C)(C)c1nc(-c2cccc(NS(=O)(=O)c3c(F)cccc3F)c2F)c(-c2ccnc(N)n2)s1	Rattus norvegicus	2.86
CC(C)c1nc(-c2cccc(NS(=O)(=O)c3c(F)cccc3F)c2)c(-c2ccnc(NCCS(C)(=O)=O)n2)s1	Rattus norvegicus	1.53
CC(C)c1nc(-c2cccc(NS(=O)(=O)c3cccc(F)c3)c2)c(-c2ccnc(NCC(N)=O)n2)s1	Rattus norvegicus	0.78
CC(C)c1nc(-c2cccc(NS(=O)(=O)c3c(F)cccc3F)c2)c(-c2ccnc(N)n2)s1	Rattus norvegicus	1.36
CC(C)c1nc(-c2cccc(NS(=O)(=O)c3c(F)cccc3F)c2F)c(-c2ccnc(Nc3ccc(N4CCOCC4)nc3)n2)s1	Rattus norvegicus	3.24
CC(C)(C)c1nc(-c2cccc(NS(=O)(=O)c3cc(F)ccc3F)c2)c(-c2ccnc(N)n2)s1	Rattus norvegicus	1.43
CC(C)c1nc(-c2cccc(NS(=O)(=O)c3cccc(F)c3)c2)c(-c2ccnc(NC3CC3)n2)s1	Rattus norvegicus	1.20
CC(C)(C)c1nc(-c2ccc(F)c(NS(=O)(=O)c3c(F)cccc3F)c2)c(-c2ccnc(NCCS(C)(=O)=O)n2)s1	Rattus norvegicus	3.14

Now take the following molecule into account.
What log10 AUC/dose value was documented for this molecule, `CC(C)c1nc(-c2ccc(F)c(NS(=O)(=O)c3c(F)cccc3F)c2)c(-c2ccnc(NCCS(C)(=O)=O)n2)s1` ? 3.01
